Attribution: PubChem BioAssay (EPA / NIEHS)

Read-out: adenosine kinase (ADK) gene, ADK (gene 132)
ASSAY REMARKS: LTEA_HepaRG_ADK: Life Technologies and Expression Analysis (LTEA) Assay for adenosine kinase (ADK) gene using HepaRG (AID 2283471)
RUN CONDITIONS: mRNA level, 48 h; actives raise or lower the signal
Activity calls are given as the source filed them. The calls were made as follows: active = hit-call score of the fitted dose curve at least 0.9, where 1 is the maximum; inactive = score below 0.9.
Reply using exactly one outcome from Yes for active, No for inactive

Past entries and their recorded results:
COc1cc(-c2ccc(N)c(OC)c2)ccc1N    No
C=CC(=O)OCCCCCC(C)C    No
Cn1sc(Cl)cc1=O    No

IN: Fill in: this test's call for `O=c1[nH]c(=O)[nH]c(=O)[nH]1` is ___
OUT: No

IN: Fill in: this test's call for `CC(C)(c1ccccc1)c1ccc(O)c(C(C)(C)c2ccccc2)c1` is ___
OUT: No

IN: Fill in: this test's call for `C[C@@H]1C[C@@H]([C@H](O)CC2CC(=O)NC(=O)C2)C(=O)[C@@H](C)C1` is ___
OUT: Yes

IN: Fill in: this test's call for ClC1(Cl)C2(Cl)C3(Cl)C4(Cl)C(Cl)(Cl)C5(Cl)C3(Cl)C1(Cl)C5(Cl)C24Cl (centres undefined) is ___
OUT: No

IN: Fill in: this test's call for `CC(C)(C)c1cc(O)ccc1O` is ___
OUT: No

IN: Fill in: this test's call for `CCC(C)(C)c1ccc(O)c(C(C)(C)CC)c1` is ___
OUT: No

IN: Fill in: this test's call for `O=C(O)C(F)(F)C(F)(F)C(F)(F)C(F)(F)C(F)(F)C(F)(F)C(F)(F)C(F)(F)C(F)(F)C(F)(F)F` is ___
OUT: No

IN: Fill in: this test's call for `C[C@]12CCC(=O)C[C@@H]1CC[C@@H]1[C@@H]2CC[C@]2(C)[C@@H](O)CC[C@@H]12` is ___
OUT: No

IN: Fill in: this test's call for `C=C(C)C(=O)[O][Sn]([CH2]CCC)([CH2]CCC)[CH2]CCC` is ___
OUT: No

IN: Fill in: this test's call for `NC(=O)O` is ___
OUT: No

IN: Fill in: this test's call for CCC(=O)C(CC(C)N(C)C)(c1ccccc1)c1ccccc1 (centres undefined) is ___
OUT: No

====

Read-out: Interleukin-1 alpha (IL1a), IL1A (gene 3552)
ASSAY REMARKS: BSK_LPS_IL1a: BioMAP Diversity Plus: LPS Assay for Interleukin-1 alpha (IL1a) Biomarker Activity (AID 2283080)
RUN CONDITIONS: primary human HUVEC with PBMC; actives raise or lower the signal
The source made the active and inactive calls. How the source made its calls: active means hit-call score of the fitted dose curve at least 0.9, where 1 is the maximum; inactive means score below 0.9.
Reply using exactly one outcome from active, inactive

IN: Fill in: this test's call for O=C1C2(Cl)C3(Cl)C4(Cl)C(Cl)(Cl)C5(Cl)C3(Cl)C1(Cl)C5(Cl)C24Cl (stereo unspecified) is ___
OUT: active

IN: Fill in: this test's call for `ClC(Cl)=C(Cl)C(Cl)=C(Cl)Cl` is ___
OUT: active

IN: Fill in: this test's call for `OCc1ccco1` is ___
OUT: inactive

IN: Fill in: this test's call for `C[C@@H]1C[C@@H]([C@H](O)CC2CC(=O)NC(=O)C2)C(=O)[C@@H](C)C1` is ___
OUT: active

IN: Fill in: this test's call for `O=C(O)CCC(F)(C(F)(F)F)C(F)(F)F` is ___
OUT: inactive

IN: Fill in: this test's call for `CC1(C)Cc2cccc(O)c2O1` is ___
OUT: inactive
